Measurement description: qHTS assay to identify small molecule phospholipidosis (PLD) inducers (AID 1259344)
Cond: HepG2 phospholipidosis, LipidTOX Red imaging, 24 h; series mostly up to 38.3 µM
Description: National Center for Advancing Translational Sciences [NCATS] Drug-induced Phospholipidosis (PLD) caused by cationic amphiphilic drugs is characterized by the appearance of unicentric or multicentric-lamellar bodies when viewed under electron microscope. […] Drug induced phospholipid accumulation is stained with the LipidTox dyes in red color which then is determined using an automated high content screening system. […]
Records with an inconclusive call do not appear. Active and inactive are the calls of the source. Calls come from the whole dose curve; as a rule, active = well fitted activation curve with a large enough effect; inconclusive = small, poorly fitted or top-dose-only effect; inactive = flat fitted curve, though single readings scatter.
Possible outcomes: active, inactive

{"columns": ["Cpd smiles", "Class"],
 "data": [
  ["O=c1[nH]cnc2nc[nH]c12", "inactive"],
  ["COc1ccc(-c2ccc3cc(C(=O)O)ccc3c2)cc1C12CC3CC(CC(C3)C1)C2", "inactive"],
  ["[O-][n+]1ccccc1SSc1cccc[n+]1[O-]", "inactive"],
  ["NC(=O)CC[C@@H]1NC(=O)[C@H](Cc2ccccc2)NC(=O)[C@H](Cc2ccc(O)cc2)NC(=O)CCSSC[C@@H](C(=O)N2CCC[C@H]2C(=O)N[C@@H](CCCN=C(N)N)C(=O)NCC(N)=O)NC(=O)[C@H](CC(N)=O)NC1=O", "inactive"],
  ["Cc1cc(O)c2ccccc2c1O", "inactive"],
  ["CCCCCCC[N+](CC)(CC)CCCCc1ccc(Cl)cc1", "inactive"],
  ["CCN1/C(=C/C=C/c2sc3ccccc3[n+]2CC)Sc2ccccc21", "active"],
  ["CCCCCCCCCCCCCCCC[N+](C)(C)CCN(Cc1ccc(OC)cc1)c1ncccn1", "inactive"],
  ["Cc1onc(-c2ccccc2Cl)c1C(=O)N[C@@H]1C(=O)N2[C@@H]1SC(C)(C)[C@@H]2C(=O)O", "inactive"]
]}
